- assay-target: UniProtKB P06867
- Sequence (P06867 97-809): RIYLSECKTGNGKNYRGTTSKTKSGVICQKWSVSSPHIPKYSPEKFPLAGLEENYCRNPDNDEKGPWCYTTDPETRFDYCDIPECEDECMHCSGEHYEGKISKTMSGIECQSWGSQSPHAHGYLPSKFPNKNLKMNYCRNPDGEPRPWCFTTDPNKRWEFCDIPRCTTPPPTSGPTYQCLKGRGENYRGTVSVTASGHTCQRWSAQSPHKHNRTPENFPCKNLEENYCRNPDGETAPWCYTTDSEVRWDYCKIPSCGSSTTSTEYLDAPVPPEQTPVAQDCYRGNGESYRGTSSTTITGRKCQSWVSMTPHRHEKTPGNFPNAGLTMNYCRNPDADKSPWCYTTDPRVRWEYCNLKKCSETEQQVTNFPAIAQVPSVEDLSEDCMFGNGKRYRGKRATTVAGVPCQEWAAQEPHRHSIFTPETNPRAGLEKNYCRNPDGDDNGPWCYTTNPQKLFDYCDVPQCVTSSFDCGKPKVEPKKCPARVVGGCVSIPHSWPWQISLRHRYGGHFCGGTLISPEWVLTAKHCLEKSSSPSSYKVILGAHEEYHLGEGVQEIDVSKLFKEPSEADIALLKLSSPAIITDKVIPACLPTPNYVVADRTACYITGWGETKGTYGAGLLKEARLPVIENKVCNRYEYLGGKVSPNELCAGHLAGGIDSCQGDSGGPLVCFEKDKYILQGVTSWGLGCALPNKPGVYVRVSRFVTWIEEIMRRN
- run-description: Km, Vmax and Vmax/Km of substrates for plasmin (pig)
- Assay type: biochemical, Porcine (pig)
- test-conditions: TABLE 1, PNA substrates, plasmin (pig), 405 nm
Where a SMILES comes first, the peptide text is derived from it. [ ]: non-standard residue; d: D form. The star is where a group is joined. pNA = O=[N+]([O-])c1ccc(N*)cc1; Tos = Cc1ccc(S(=O)(=O)*)cc1
Each entry below lists one item and its recorded Vmax (× 10^7) value.

Examples with their reported Vmax (× 10^7) follow.
molecule: Cc1ccc(S(=O)(=O)NCCCC[C@@H](N)C(=O)N[C@@H](Cc2ccccc2)C(=O)N[C@@H](CCCCN)C(=O)Nc2ccc([N+](=O)[O-])cc2)cc1 [NPN-2, H-D-Lys(ToS)-Phe-Lys PNA.2HBr] (H-[dK](Tos)-Phe-Lys-pNA)
Vmax (× 10^7): 47.968 × 10^7
//
molecule: Cc1ccc(S(=O)(=O)NCC(=O)N2CCC[C@H]2C(=O)N[C@@H](CCCCN)C(=O)Nc2ccc([N+](=O)[O-])cc2)cc1 [CHR-PL, Tos-Gly-Pro-Lys-PNA, reference compound] (HELM PEPTIDE1{[Cc1ccc(S(=O)(=O)[*:2])cc1].G.P.K.[O=[N+]([O-])c1ccc(N[*:1])cc1]}$$$$V2.0)
Vmax (× 10^7): 60.067 × 10^7
//
molecule: NCCCC[C@H](NC(=O)[C@H](Cc1ccccc1)NC(=O)[C@H](N)CCC(=O)OCCc1ccccc1)C(=O)Nc1ccc([N+](=O)[O-])cc1
Vmax (× 10^7): 28.542 × 10^7
//
molecule: NCCCC[C@H](NC(=O)[C@H](Cc1ccccc1)NC(=O)[C@H](N)CCCCNS(=O)(=O)c1ccc2ccccc2c1)C(=O)Nc1ccc([N+](=O)[O-])cc1
Vmax (× 10^7): 23.895 × 10^7

I am curious: what Vmax (× 10^7) value has been reported for CC(C)C[C@H](NC(=O)[C@H](N)C(C)C)C(=O)N[C@@H](CCCCN)C(=O)Nc1ccc([N+](=O)[O-])cc1 [S-2251, H-D-Val-Leu-Lys-PNA, reference compound] (HELM PEPTIDE1{[dV].L.K.[O=[N+]([O-])c1ccc(N[*:1])cc1]}$$$$V2.0) ?
39.876 × 10^7

Record request: Vmax (× 10^7) value, item NCCCC[C@H](NC(=O)[C@H](Cc1ccccc1)NC(=O)[C@H](N)CCC(=O)NCCc1ccccc1)C(=O)Nc1ccc([N+](=O)[O-])cc1 [NPN-4] (HELM PEPTIDE1{[dE].F.K.[O=[N+]([O-])c1ccc(N[*:1])cc1]}|CHEM1{[c1ccc(CCN[*:1])cc1]}$PEPTIDE1,CHEM1,1:R3-1:R1$$$V2.0)
23.895 × 10^7

Find the recorded Vmax (× 10^7) belonging to "Cc1ccc(C(=O)NCCCC[C@@H](N)C(=O)N[C@@H](Cc2ccccc2)C(=O)N[C@@H](CCCCN)C(=O)Nc2ccc([N+](=O)[O-])cc2)cc1" and report it.
26.218 × 10^7

Fill blank: measured Vmax (× 10^7) of the molecule "Cc1ccc(CCNC(=O)CC[C@@H](N)C(=O)N[C@@H](Cc2ccccc2)C(=O)N[C@@H](CCCCN)C(=O)Nc2ccc([N+](=O)[O-])cc2)cc1" is ____.
20.908 × 10^7

Recorded Vmax (× 10^7) for Cc1ccc(S(=O)(=O)NCCCC[C@@H](N)C(=O)N[C@@H](CC(C)C)C(=O)N[C@@H](CCCCN)C(=O)Nc2ccc([N+](=O)[O-])cc2)cc1 [NPN-1, HD-Lys(Tos)LeuLysPNA.2HBr] (H-[dK](Tos)-Leu-Lys-pNA) , please?
63.600 × 10^7
